Molecular target: Heat shock factor protein 1 (Mus musculus)
Sequence (P38532 whole entry): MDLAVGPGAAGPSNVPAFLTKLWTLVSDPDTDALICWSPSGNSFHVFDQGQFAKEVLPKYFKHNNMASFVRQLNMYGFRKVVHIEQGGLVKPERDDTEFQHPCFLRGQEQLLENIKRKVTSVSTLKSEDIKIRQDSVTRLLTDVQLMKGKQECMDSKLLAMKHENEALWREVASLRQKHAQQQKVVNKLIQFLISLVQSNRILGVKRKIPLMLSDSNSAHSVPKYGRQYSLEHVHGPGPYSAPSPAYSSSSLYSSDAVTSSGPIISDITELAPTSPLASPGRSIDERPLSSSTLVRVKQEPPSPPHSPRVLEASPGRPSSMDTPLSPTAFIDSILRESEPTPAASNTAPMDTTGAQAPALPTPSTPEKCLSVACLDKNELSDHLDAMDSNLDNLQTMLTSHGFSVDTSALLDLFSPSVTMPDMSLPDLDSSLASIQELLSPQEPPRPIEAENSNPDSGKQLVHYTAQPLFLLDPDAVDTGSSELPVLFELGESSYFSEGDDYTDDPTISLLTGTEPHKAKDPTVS
Assay: HSF1 potentiators in luciferase reporter cells, confirmation, cell-based, NIH3T3, luminescence, dose retest (AID 435004);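 further: stress induced by proteasome inhibitor MG132 added 30 min after compound; luciferase reporter driven by HSF1 response element in NIH3T3 cells; actives raise luminescence as potentiators of the MG132 stress response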
Assay type: functional
Activity calls are given as the source filed them.
Property name: EC50

Task item: Look at this compound and give its reported EC50. CC(C)(C)c1ccc(Cn2c(=N)n(CC(O)c3ccco3)c3ccccc32)cc1 (centres undefined)
Reply: > 260 µM (inactive)

Task item: I would be grateful if you could share the reported EC50 for CC1=C(/C=C/C(=O)O)C(C)(C)CCC1 .
Reply: > 260 µM (inactive)

Task item: Would you kindly share the measured EC50 for Oc1[nH]c2ccccc2c1N=NC(=S)N1CCOCC1 ?
Reply: 3.31 µM (inconclusive)

Task item: Please look up its EC50: CCCN1C(=O)c2ccccc2NC1c1ccc(Cl)c(Cl)c1 (centres undefined)
Reply: 59.6 µM (active)

###

What EC50 was measured for each of the following?
Target: Zinc finger protein mex-5 (Caenorhabditis elegans, UniProt Q9XUB2)
Sequence (Q9XUB2 whole entry): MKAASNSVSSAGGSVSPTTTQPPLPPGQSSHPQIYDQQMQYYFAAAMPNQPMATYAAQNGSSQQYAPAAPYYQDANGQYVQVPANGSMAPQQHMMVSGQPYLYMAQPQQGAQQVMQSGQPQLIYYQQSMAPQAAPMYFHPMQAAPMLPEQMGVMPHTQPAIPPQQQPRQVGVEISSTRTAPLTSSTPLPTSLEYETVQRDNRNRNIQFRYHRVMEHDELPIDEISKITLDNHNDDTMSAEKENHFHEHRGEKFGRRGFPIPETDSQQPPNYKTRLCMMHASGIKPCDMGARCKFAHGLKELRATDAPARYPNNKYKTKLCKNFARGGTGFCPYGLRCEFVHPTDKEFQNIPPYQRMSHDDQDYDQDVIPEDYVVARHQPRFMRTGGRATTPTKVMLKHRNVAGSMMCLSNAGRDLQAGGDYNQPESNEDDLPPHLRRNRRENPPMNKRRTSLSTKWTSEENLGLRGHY
Experiment: MEX-5/TCR-2 RNA interaction inhibitors, dose response, biochemical, C. elegans, fluorescence polarization (AID 1960)
The source made the active and inactive calls.

Task item: Name the reported EC50 value associated with the molecule O=C1C2=C(SCCS2)C(=O)N1c1ccccc1
Reply: > 300 µM (not active)

Task item: What measured EC50 goes with O=C(O)c1cccc(-n2cccc2/C=C\[N+](=O)[O-])c1 ?
Reply: 40.8 µM (active)

Task item: // EC50 lookup, key: CCOc1cc(/C=C2\C(=O)NC(=O)N(CCc3ccc(F)cc3)C2=O)ccc1O
Reply: > 300 µM (not active)

Task item: # query: EC50 of entry CO[C@H]1O[C@H](CBr)[C@@H](OC(=O)c2ccccc2)[C@H](O)[C@H]1O
Reply: > 300 µM (not active)

Task item: // returns reported EC50 for input Cc1[n-][o+]nc1OCCNCCNc1ccc([N+](=O)[O-])c2cccnc12
Reply: 18.6 µM (active)

###

The listing below reports AC50 for molecules tested on Cytochrome P450 3A4 (Homo sapiens, UniProt P08684).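 Further: CYP3A4 tested as one member of a cytochrome P450 panel screen.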
Sequence (P08684 whole entry): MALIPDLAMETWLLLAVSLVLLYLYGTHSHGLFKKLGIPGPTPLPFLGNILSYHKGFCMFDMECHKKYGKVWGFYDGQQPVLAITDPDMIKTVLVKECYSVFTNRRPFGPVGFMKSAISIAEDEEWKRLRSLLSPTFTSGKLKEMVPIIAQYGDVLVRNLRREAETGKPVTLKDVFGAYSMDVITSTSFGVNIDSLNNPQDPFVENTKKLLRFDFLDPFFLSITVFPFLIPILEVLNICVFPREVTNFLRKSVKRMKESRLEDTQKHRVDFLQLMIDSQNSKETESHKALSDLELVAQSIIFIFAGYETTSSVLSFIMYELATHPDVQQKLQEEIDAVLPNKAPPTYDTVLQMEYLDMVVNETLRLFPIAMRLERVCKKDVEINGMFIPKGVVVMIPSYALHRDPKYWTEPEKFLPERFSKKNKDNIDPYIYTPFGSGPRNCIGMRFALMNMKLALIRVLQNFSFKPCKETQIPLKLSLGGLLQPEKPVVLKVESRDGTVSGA

Task item: Value lookup for AC50; key = Cc1ccc([C@@H](O)c2cnc(C)n2Cc2ccccc2)cc1
Reply: 5.01 µM (inconclusive)

Task item: For the molecule shown here, C[C@@H](c1ccccc1)N1C(=O)[C@H]2[C@H]3[C@H](O)[C@H](O)C/C(=N/OCc4ccccc4)[C@H]3CC[C@@H]2C1=O , give the reported AC50.
Reply: 3.16 µM (inconclusive)

Task item: // lookup AC50 for N=C(N)SCc1nc(-c2ccc(Cl)cc2)no1
Reply: 5.01 µM (inconclusive)

Task item: Suppose we examine the molecule O=c1cc(O)cc(/C=C\c2ccc(O)c(O)c2)o1 ; what AC50 value has been reported?
Reply: 3.16 µM (inconclusive)

Task item: Entry Cc1ccc(-c2nn(-c3ccccc3)cc2CSC(=N)N)cc1 has what AC50?
Reply: 39.8 µM (inconclusive)

Values were extracted from ChEMBL document CHEMBL1201862.
